target desc: T1, Kv1.3 (cloned) (Mus musculus (Mouse)), P16390
T1 chain: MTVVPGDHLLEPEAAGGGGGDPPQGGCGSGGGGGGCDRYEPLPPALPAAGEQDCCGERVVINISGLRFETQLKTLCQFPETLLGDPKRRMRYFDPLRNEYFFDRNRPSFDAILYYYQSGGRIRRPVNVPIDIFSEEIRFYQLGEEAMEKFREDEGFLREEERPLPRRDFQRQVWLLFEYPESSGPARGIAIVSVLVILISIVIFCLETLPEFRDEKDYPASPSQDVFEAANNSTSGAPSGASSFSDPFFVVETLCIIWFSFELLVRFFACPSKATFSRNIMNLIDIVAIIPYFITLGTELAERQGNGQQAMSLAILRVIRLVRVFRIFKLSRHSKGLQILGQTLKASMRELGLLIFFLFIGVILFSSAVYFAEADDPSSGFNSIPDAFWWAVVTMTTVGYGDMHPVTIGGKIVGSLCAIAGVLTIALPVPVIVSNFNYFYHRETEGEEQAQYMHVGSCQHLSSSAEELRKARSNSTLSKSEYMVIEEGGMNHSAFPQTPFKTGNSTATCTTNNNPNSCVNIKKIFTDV
metric name: pKd
pKd is defined as minus the log10 of a concentration measured in mol/L.

stdin: Reported pKd, binder RSCIDTIPKSRCTAFQCKHSMKYRLSFCRKTCGTC (modifications not checked) [ShK toxin] : ____
stdout: 11.00
